# MEASUREMENT_TARGET: Prostaglandin G/H synthase 1 (Bos taurus, UniProt O62664)
# Sequence (O62664 whole entry): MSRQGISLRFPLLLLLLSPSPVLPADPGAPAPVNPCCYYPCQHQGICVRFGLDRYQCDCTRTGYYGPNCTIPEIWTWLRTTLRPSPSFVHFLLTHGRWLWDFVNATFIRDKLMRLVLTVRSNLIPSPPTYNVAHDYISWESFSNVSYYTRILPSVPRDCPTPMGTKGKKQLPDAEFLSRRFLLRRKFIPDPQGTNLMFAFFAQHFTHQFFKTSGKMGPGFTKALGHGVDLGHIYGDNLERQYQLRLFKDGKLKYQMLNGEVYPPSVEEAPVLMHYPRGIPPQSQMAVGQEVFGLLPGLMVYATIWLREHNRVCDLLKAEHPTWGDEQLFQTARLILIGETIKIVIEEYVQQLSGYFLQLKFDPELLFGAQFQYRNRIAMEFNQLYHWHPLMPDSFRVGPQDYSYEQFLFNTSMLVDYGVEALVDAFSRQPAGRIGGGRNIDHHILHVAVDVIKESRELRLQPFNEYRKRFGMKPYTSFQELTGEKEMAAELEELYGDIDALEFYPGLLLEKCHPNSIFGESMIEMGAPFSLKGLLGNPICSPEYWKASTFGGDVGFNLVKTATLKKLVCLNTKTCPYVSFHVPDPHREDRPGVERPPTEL
pIC50: −log10 of the molar value.
Collected from the literature: pIC50 of various compounds toward Prostaglandin G/H synthase 1 (Bos taurus, UniProt O62664).
Criterion: pIC50 meeting or surpassing 5. Met: YES. Not met: NO.

Field: example entries. Status: answers known.
STRUCTURE_SMILES	ANSWER_LABEL
Cc1ccc(-c2cnsc2-c2ccc(Cl)cc2)cc1	YES
CCCCCCCCCCCCCCC(=O)O	NO
COc1ccc(-c2ssc(=S)c2-c2ccc(OC)cc2)cc1	YES
CS(=O)(=O)c1ccc(-n2nc(C(F)(F)F)cc2-c2ccnc(Cl)c2)cc1	NO
Cc1ccc(-c2ssc(=S)c2-c2ccc(Cl)cc2)cc1	YES

Threshold query (pIC50 >= 5) on "CCCCCCCCCCCCCC(=O)O"
NO

Threshold query (pIC50 >= 5) on "Cc1ccc(-c2c(-c3ccc(S(C)(=O)=O)cc3)ssc2=S)cc1"
YES

Threshold query (pIC50 >= 5) on "CCCCC/C=C\C/C=C\CCCCCCCC(=O)O"
NO

Threshold query (pIC50 >= 5) on "CCCCCCCCCCCCCCCC(=O)O"
NO

Threshold query (pIC50 >= 5) on "CC/C=C\C/C=C\C/C=C\C/C=C\CCOCC(=O)O"
NO

Threshold query (pIC50 >= 5) on "CCCCCCCC/C=C\CCCCCCCC(=O)O"
NO

Threshold query (pIC50 >= 5) on "Oc1ccc(-c2ssc(=S)c2-c2ccc(O)cc2)cc1"
NO

Threshold query (pIC50 >= 5) on "COc1ccc(-c2ssc(=O)c2-c2ccc(OC)cc2)cc1"
YES

Threshold query (pIC50 >= 5) on "COc1ccc(-c2cnsc2-c2ccc(Cl)cc2)cc1"
YES

====

Collected from the literature: IC50 of various compounds toward Prostaglandin G/H synthase 1 (Bos taurus).
# MEASUREMENT_TARGET: Prostaglandin G/H synthase 1 (Bos taurus)
# Sequence (O62664 whole entry): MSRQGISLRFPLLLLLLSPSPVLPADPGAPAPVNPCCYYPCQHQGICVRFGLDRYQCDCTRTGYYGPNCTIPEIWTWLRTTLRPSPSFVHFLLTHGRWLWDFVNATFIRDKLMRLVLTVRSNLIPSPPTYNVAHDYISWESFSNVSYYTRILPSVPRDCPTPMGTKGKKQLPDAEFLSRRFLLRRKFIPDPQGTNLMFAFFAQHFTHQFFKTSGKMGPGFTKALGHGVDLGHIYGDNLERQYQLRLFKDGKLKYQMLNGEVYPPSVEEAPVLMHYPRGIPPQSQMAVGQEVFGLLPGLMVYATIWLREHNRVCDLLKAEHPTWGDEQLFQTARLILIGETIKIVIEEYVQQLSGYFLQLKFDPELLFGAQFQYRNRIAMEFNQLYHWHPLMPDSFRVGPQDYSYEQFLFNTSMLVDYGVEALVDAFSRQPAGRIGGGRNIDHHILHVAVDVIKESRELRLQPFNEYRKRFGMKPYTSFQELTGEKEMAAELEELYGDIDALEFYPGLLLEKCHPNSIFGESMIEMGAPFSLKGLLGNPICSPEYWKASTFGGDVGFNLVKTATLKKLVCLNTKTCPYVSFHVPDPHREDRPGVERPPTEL
Answers are plain numbers, in µM.

Please report IC50 for every entry that follows.
1. NS(=O)(=O)c1ccc(-n2nc(C(F)(F)F)cc2-c2ccn(C(F)F)c(=O)c2)cc1
2. NS(=O)(=O)c1ccc(-n2nc(C(F)(F)F)cc2-c2ccnc(Cl)c2)cc1

[13.1, 8.3]

Please report IC50 for every entry that follows.
1. CC/C=C\C/C=C\C/C=C\C/C=C\C/C=C\CCCC(=O)O
2. CC/C=C\C/C=C\C/C=C\CC/C=C/CSCCCC(=O)O

1. 13
2. 81

Please report IC50 for every entry that follows.
1. Cc1ccc(-c2c(-c3ccc(Cl)cc3)ssc2=S)cc1
2. CS(=O)(=O)c1ccc(-c2sncc2-c2ccc(F)cc2)cc1
3. Cc1ccc(-c2sncc2-c2ccc(Cl)cc2)cc1
4. Cc1ccc(-c2ssc(=S)c2-c2ccc(S(C)(=O)=O)cc2)cc1
5. Cc1ccc(-c2c(-c3ccc(Cl)cc3)ssc2=O)cc1
6. COc1ccc(-c2cnsc2-c2ccc(OC)cc2)cc1

[2, 50, 0.2, 0.6, 0.2, 0.003]
